molecular target: Kir4.1 (Rattus norvegicus); construct: full-length rat Kir4.1 cDNA in pcDNA3.1, RNA expressed in Xenopus laevis oocytes; homotetramer; assay: two-electrode voltage clamp, slope conductance Gmax
Sequence (P49655 whole entry): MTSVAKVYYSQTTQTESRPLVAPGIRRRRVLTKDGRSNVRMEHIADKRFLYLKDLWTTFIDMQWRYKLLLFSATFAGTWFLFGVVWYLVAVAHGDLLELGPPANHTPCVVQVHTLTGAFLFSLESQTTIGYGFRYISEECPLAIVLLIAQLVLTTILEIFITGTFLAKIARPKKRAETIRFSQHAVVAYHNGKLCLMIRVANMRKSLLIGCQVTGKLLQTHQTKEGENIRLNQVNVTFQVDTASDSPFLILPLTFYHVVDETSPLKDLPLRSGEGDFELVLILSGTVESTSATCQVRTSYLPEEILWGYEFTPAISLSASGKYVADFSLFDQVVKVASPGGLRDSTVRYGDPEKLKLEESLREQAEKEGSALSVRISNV
assay.metric: EC50 (µM)
Respond with the bare value in µM.

{"columns": ["molecule", "EC50 / µM"],
 "data": [
  ["CCCCCCCCCCCCCCCC(=O)OC(CO)CO [2-PG]", 12.4]
]}

As a next step, examine the molecule that follows.
Query: Lab request: please report EC50 under test system Kir4.1 (Rattus norvegicus) for CCCCCCCCCCCCCCCCCCCC(=O)NCCO [ArEA]
Result: 4.5

###

target: Kir2.1 (Homo sapiens); construct: gene KCNJ2; full-length human Kir2.1 cDNA in pcDNA3.1, RNA expressed in Xenopus laevis oocytes; homotetramer; test: two-electrode voltage clamp, slope conductance Gmax; assay type: cell-based
Sequence (P63252 whole entry): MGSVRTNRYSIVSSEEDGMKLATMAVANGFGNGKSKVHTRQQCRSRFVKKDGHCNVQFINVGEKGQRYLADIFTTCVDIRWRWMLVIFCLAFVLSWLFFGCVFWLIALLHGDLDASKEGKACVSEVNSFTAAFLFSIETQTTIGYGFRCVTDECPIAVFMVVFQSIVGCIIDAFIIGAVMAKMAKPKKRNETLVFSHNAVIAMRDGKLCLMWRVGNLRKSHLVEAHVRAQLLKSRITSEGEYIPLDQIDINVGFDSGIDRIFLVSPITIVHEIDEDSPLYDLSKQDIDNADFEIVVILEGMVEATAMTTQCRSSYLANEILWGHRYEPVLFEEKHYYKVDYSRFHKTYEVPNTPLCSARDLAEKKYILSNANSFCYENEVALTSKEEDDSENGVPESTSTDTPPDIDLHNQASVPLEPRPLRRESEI
assay.metric: EC50

{"columns": ["molecule", "EC50"],
 "data": [
  ["CCCCC/C=C\\C/C=C\\C/C=C\\C/C=C\\CCCCCC(=O)NCCO", "32 µM"],
  ["CCCCCC/C=C\\CCCCCCCC(=O)NCCO", "9.3 µM"]
]}

Query: // EC50 lookup, key: CCCCC/C=C\C/C=C\C/C=C\C/C=C\CCCC(=O)NCC(=O)O
Result: 27.7 µM

Query: // EC50 lookup, key: CCCCC/C=C\C/C=C\C/C=C\CCCCC(=O)NCCO
Result: 36.8 µM
